test system: 931267-113-T-J1-PDC KRAS spheroid with HUVEC/MSC, viability; test: Anticancer human tumor 931267-113-T-J1-PDC patient-derived colon adenocarcinoma cell line growth inhibition [KRAS2]; conditions: second compound 0.1 µM; first compound 0.000316 µM; stronger effect = lower value;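 note: compound exposure lasted 7 days before the readout; 100% = DMSO vehicle control viability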
value_type: viability, T/C (%)
Record the value in %, omitting the unit from your answer.

compound	subject_of_test	assay_value
CC(=O)Nc1cccc(-n2c(=O)n(C3CC3)c(=O)c3c(Nc4ccc(I)cc4F)n(C)c(=O)c(C)c32)c1 + C=CC(=O)N1CCN(c2nc(=O)n(-c3c(C)ccnc3C(C)C)c3nc(-c4c(O)cccc4F)c(F)cc23)C(C)C1	931267-113-T-J1-PDC KRAS spheroid with HUVEC/MSC, viability	81.9
CN(C)C/C=C/C(=O)Nc1cc2c(Nc3ccc(F)c(Cl)c3)ncnc2cc1O[C@H]1CCOC1 + C=CC(=O)N1CCN(c2nc(OCC3CCCN3C)nc3c2CCN(c2cccc4cccc(C)c24)C3)CC1CC#N	931267-113-T-J1-PDC KRAS spheroid with HUVEC/MSC, viability	89.2
CC(=O)Nc1cccc(-n2c(=O)n(C3CC3)c(=O)c3c(Nc4ccc(I)cc4F)n(C)c(=O)c(C)c32)c1 + COc1cc2nc(C)nc(NC(C)c3cc(N)cc(C(F)(F)F)c3)c2cc1OC1CCOC1	931267-113-T-J1-PDC KRAS spheroid with HUVEC/MSC, viability	75.3
CN(C)C/C=C/C(=O)Nc1cc2c(Nc3ccc(F)c(Cl)c3)ncnc2cc1O[C@H]1CCOC1 + COc1cc2nc(C)nc(NC(C)c3cc(N)cc(C(F)(F)F)c3)c2cc1OC1CCOC1	931267-113-T-J1-PDC KRAS spheroid with HUVEC/MSC, viability	96.2

// next item, viability, T/C requested
Short answer on 931267-113-T-J1-PDC KRAS spheroid with HUVEC/MSC, viability for CN(C)C/C=C/C(=O)Nc1cc2c(Nc3ccc(F)c(Cl)c3)ncnc2cc1O[C@H]1CCOC1 + CC1OCC2(CCN(c3cnc(Sc4ccnc(N)c4Cl)c(N)n3)CC2)C1N , viability, T/C: 80.6
